study system: human dopamine D1 receptor (human, UniProt P21728 1-446)
Sequence (P21728 whole entry): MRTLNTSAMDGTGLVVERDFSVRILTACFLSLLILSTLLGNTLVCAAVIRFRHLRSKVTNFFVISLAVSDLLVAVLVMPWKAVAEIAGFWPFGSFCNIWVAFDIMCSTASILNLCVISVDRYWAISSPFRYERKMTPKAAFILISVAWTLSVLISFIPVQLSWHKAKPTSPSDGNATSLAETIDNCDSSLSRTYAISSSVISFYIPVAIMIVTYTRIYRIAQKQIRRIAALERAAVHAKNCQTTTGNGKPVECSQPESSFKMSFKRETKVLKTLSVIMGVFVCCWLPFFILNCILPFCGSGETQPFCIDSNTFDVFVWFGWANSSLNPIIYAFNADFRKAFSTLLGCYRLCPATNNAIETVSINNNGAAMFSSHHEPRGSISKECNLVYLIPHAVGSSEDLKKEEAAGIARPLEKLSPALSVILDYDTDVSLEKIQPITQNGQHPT
assay notes: cell-based or functional assay
experimental readout: max Ca2+ signal, COS-7, FLIPR; agonist DA (fluorescence units)
One number for each entry, in fluorescence units.

binder	quantitative result
Human Gαq/s5 (other) MTLESIMACCLSEEAKEARRINDEIERQLRRDKRDARRELKLLLLGTGESGKSTFIKQMRIIHGSGYSDEDKRGFTKLVYQNIFTAMQAMIRAMDTLKIPYKYEHNKAHAQLVREVDVEKVSAFENPYVDAIKSLWNDPGIQECYDRRREYQLSDSTKYYLNDLDRVADPSYLPTQQDVLRVRVPTTGIIEYPFDLQSVIFRMVDVGGQRSERRKWIHCFENVTSIMFLVALSEYDQVLVESDNENRMEESKALFRTIITYPWFQNSSVILFLNKKDLLEEKIMYSHLVDYFPEYDGPQRDAQAAREFILKMFVDLNPDSDKIIYSHFTCATDTENIRFVFAAVKDTILQLNLKQYELL	0

Please give max Ca2+ signal, COS-7, FLIPR; agonist DA, item by item, for the list that follows.
1. C. elegans Gαq/s21 (other) MACCLSEEAREQKRINQEIEKQLQRDKRNARRELKLLLLGTGESGKSTFIKQMRIIHGQGYSEEDKRAHIRLVYQNVFMAIQSMIRAMDTLDIKFGNESEELQEKAAVVREVDFESVTSFEEPYVSYIKELWEDSGIQECYDRRREYQLTDSAKYYLSDLRRLAVPDYLPTEQDILRVRVPTTGIIEYPFDLEQIIFRMVDVGGQRSERRKWIHCFENVTSIMFLVALSEYDQVLVECDNENRMEESKALFRTIITYPWFTNSSVILFLNKKDLLEEKILYSHLADYFPEYDGPPRDPIAAREFILKMFVDLNPDADKIIYSHFTCATDTENIRRVFNDCRDIIQRMHLRQYELL
2. Human Gαq/s9 (other) MTLESIMACCLSEEAKEARRINDEIERQLRRDKRDARRELKLLLLGTGESGKSTFIKQMRIIHGSGYSDEDKRGFTKLVYQNIFTAMQAMIRAMDTLKIPYKYEHNKAHAQLVREVDVEKVSAFENPYVDAIKSLWNDPGIQECYDRRREYQLSDSTKYYLNDLDRVADPSYLPTQQDVLRVRVPTTGIIEYPFDLQSVIFRMVDVGGQRSERRKWIHCFENVTSIMFLVALSEYDQVLVESDNENRMEESKALFRTIITYPWFQNSSVILFLNKKDLLEEKIMYSHLVDYFPEYDGPQRDAQAAREFILKMFVDLNPDSDKIIYSHFTCATDTENIRFVFAAVKDTILQMHLRQYELL

output:
1. 9430
2. 5690
